Target Or System: T1, human HER3-Fc (R&D Systems, 348-RB) (human, UniProt P21860 20-643)
T1 construct: Bought; also called hHER3-Fc; Fc-HER3; Fc part of the bought chimera not given, not described
Experiment: 18G11 competition alphascreen, periplasmic extract
Observation Type: % inhibition (%)
Supply the numeric figure in %, leaving out any unit text.

[[record]]
binder = "HER3MS00068 (VHH, 18G11 M99G) VHH: EVQLVESGGGLVQPGGSLRLSCAASGTLFKINAMGWYRQAPGKRRELVALITSSDTTDYAESVEGRFTISRDNTWNAVYLQMNSLKPEDTAVYYCHSDHYSGGVPEKRVIMYGQGTLVTVSS"
experimental_value = 84.4


Measured % inhibition of HER3MS00072 (VHH, 18G11 M102L) VHH: EVQLVESGGGLVQPGGSLRLSCAASGTLFKINAMGWYRQAPGKRRELVALITSSDTTDYAESVEGRFTISRDNTWNAVYLQMNSLKPEDTAVYYCHSDHYSMGVPEKRVILYGQGTLVTVSS : 88

Measured % inhibition of HER3MS00069 (VHH, 18G11 M99L) VHH: EVQLVESGGGLVQPGGSLRLSCAASGTLFKINAMGWYRQAPGKRRELVALITSSDTTDYAESVEGRFTISRDNTWNAVYLQMNSLKPEDTAVYYCHSDHYSLGVPEKRVIMYGQGTLVTVSS : 83

Measured % inhibition of HER3MS00073 (VHH, 18G11 M102D) VHH: EVQLVESGGGLVQPGGSLRLSCAASGTLFKINAMGWYRQAPGKRRELVALITSSDTTDYAESVEGRFTISRDNTWNAVYLQMNSLKPEDTAVYYCHSDHYSMGVPEKRVIDYGQGTLVTVSS : 84.4
